Exercise: for every item that follows, state its recorded kon.
- measured on: T1, human CD3e/g antigen (ACRO, catalog number CDG-H52W5) (human, UniProt P07766 23-126; P09693 23-116)
- T1 construct: Bought reagent used as the Biacore analyte; also called hCD3e/g
- test protocol: SPR (Biacore 8K), antibody captured via anti-human Fc
Numbers only, in M⁻¹ s⁻¹.

{"columns": ["binder", "measurement unit", "kon"],
 "data": [
  ["hAb001-22 (antibody, V domains shown, Humanized; constant regions not specified) VH: QVQLVQSGAEVKKPGASVKVSCKASGYSFTNYYMHWVRQAPGQRLEWIGWTYPGNNNIKYNEKFKGRVTITADTSASTAYMELSSLRSEDTAVYYCARDGYGYYFFDYWGQGTLVTVSS VL: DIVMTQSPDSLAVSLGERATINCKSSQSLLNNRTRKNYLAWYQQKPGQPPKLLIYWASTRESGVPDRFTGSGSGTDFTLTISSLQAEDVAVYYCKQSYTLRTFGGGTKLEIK", "M⁻¹ s⁻¹", 416000],
  ["hAb007-27 (antibody, V domains shown, Humanized; constant regions not specified) VH: QVQLVQSGAEVKKPGASVKVSCKASGSTFTDNYIHWVRQAPGQRLEWIGWIYPGSVNIKYNEKFKDRATITADTSASTAYMELSSLRSEDTAVYYCARDISRYYFDYWGQGTTVTVSS VL: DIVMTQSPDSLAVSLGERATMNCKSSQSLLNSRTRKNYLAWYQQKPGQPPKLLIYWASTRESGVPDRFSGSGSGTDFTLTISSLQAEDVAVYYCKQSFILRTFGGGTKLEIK", "M⁻¹ s⁻¹", 427000]
]}

Consider the record given below.
# input Using the record for hAb001-25 (antibody, V domains shown, Humanized; constant regions not specified) VH: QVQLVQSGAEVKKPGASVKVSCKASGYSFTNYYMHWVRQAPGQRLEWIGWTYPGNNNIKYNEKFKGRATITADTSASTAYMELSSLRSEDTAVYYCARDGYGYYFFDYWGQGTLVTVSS VL: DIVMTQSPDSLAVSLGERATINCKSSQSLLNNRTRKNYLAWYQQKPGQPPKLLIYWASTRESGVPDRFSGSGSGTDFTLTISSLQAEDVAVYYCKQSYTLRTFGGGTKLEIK , report its kon.
# output 397000
